Source: PubChem BioAssay (EPA / NIEHS)

# assay.comment: CCTE_Shafer_MEA_acute_per_network_burst_spike_number_mean: CCTE's Neural Acute Assay for Average Number of Spikes in a Network Burst, Shafer Lab (AID 2284019)
The source made the active and inactive calls. The calls were made as follows: active = hit-call score of the fitted dose curve at least 0.9, where 1 is the maximum; inactive = score below 0.9.
Would you mind answering with one of these outcomes? 1 (yes) = active, 0 (no) = inactive

Completed entries (count: 3):
CCCCC(CC)COC(=O)CCCCCCCCC(=O)OCC(CC)CCCC (stereo unspecified); 0 (no)
CCCN(C1CCN(C(=O)C2CCNCC2)CC1)[C@@H]1CCc2ccc(OC)cc2C1; 0 (no)
Cn1cnc([N+](=O)[O-])c1Sc1ncnc2nc[nH]c12; 0 (no)

Input: Recorded test outcome, item COc1ccc2sc(C(=O)Nc3nnn[nH]3)c(OC(C)C)c2c1
Output: 0 (no)

Input: Answer briefly: the call reported for COc1cccc(-c2ccc(/C=C\CN3CCCCCC3)cc2Cl)c1 in this assay.
Output: 1 (yes)

Input: Status in this test for CC(C)=CCCC(C)=CC=O ?
Output: 0 (no)

---

# Read-out: Tumor necrosis factor receptor 1 (TNFRSF1A), TNFRSF1A (gene 7132)
# assay.comment: LTEA_HepaRG_TNFRSF1A: Life Technologies and Expression Analysis (LTEA) Assay for Tumor necrosis factor receptor 1 (TNFRSF1A) using HepaRG (AID 2283535)
# test.conditions: mRNA level, 48 h; actives raise or lower the signal
Active and inactive are the calls of the source. The calls were made as follows: active = hit-call score of the fitted dose curve at least 0.9, where 1 is the maximum; inactive = score below 0.9.
Result category, one only: active, inactive

Take a look at these entries with their results.
COc1ccc(/C=C/S(=O)(=O)NC(=O)c2ccc(C)cc2Cl)cc1; inactive
Clc1nc(Cl)c(Cl)c(Cl)c1Cl; inactive

Input: Tell me the assay call for COC(=O)c1c(Cl)c(Cl)c(C(=O)OC)c(Cl)c1Cl please.
Output: inactive

Input: Could you please tell me the result logged for O=C(O)c1cccc(Oc2ccccc2)c1 in this assay?
Output: inactive

Input: State the result this test recorded for CC(O)CN(CCN(CC(C)O)CC(C)O)CC(C)O (configuration not stated) .
Output: inactive

Input: Which outcome did this test record for the compound CCc1cc(SCc2sc(-c3ccc(C(F)(F)F)cc3)nc2CN2CCN(c3ccc(OC)cc3)CC2)ccc1OCC(=O)O ?
Output: active

Input: // param item: Oc1ccc2c(c1)-c1ccccc1C2 ; yields the recorded call
Output: inactive

Input: Hi team, can someone confirm the assay call for O=P(OC(CCl)CCl)(OC(CCl)CCl)OC(CCl)CCl ?
Output: active

Input: Field: outcome | Entry: CC(=O)OC[C@H]1O[C@@](COC(C)=O)(O[C@H]2O[C@H](COC(C)=O)[C@@H](OC(C)=O)[C@H](OC(C)=O)[C@H]2OC(C)=O)[C@@H](OC(C)=O)[C@@H]1OC(C)=O
Output: inactive

---

# assay.comment: ATG_EGR_CIS: Attagene CIS-FACTORIAL HepG2 Assay for human Early Growth Response 1 (EGR1) (AID 2282938)
# test.conditions: HepG2 Attagene CIS-FACTORIAL EGR reporter mRNA; actives raise or lower the signal
# Description: ATG_CIS is a cell-based, multiplexed-readout assay that uses HepG2, a human liver cell line, with measurements taken at 24 hours after chemical dosing in a 24-well plate.ATG_EGR_CIS is one of 52 assay component(s) measured or calculated from the ATG_CIS assay. […] This assay endpoint, ATG_EGR_CIS, was analyzed with bidirectional fitting relative to DMSO as the negative control and baseline of activity. […]
Active and inactive are the calls of the source. The calls were made as follows: active = hit-call score of the fitted dose curve at least 0.9, where 1 is the maximum; inactive = score below 0.9.
Permitted responses: yes (1) (active), no (0) (inactive)

Past entries and their recorded results:
CC[C@H](C)C(=O)O[C@H]1C[C@@H](C)C=C2C=C[C@H](C)[C@H](CC[C@@H]3C[C@@H](O)CC(=O)O3)[C@H]21; no (0)
C[C@](N)(Cc1ccc(O)c(O)c1)C(=O)O; no (0)
Cc1ccc(N)cc1O; no (0)

Input: Fill in: this test's call for CC(=O)OCCC(C)C is ___
Output: no (0)

Input: Recorded call for CCOC(=O)c1ccc(C2CCC(NC[C@H](O)COc3ccc(O)c(NS(C)(=O)=O)c3)CC2)cc1 (some centres undefined) ?
Output: yes (1)

Input: Kindly provide the recorded test outcome for the following compound: CCOc1cccc(-n2cc(C(=O)N3CCN(c4cc(C(=O)O)c5ccccc5c4)CC3)nc2-c2ccc(C)cc2)c1
Output: yes (1)

Input: Recorded test call requested for CC(C)CC(C)(O)C#CC(C)(O)CC(C)C (centres undefined)
Output: no (0)

Input: Which result was noted for this compound in the test: O=C(O)CC(O)C(=O)O (centres undefined)
Output: no (0)

Input: Could you please tell me the result logged for CCCCCCCCCCCCc1ccccc1 in this assay?
Output: no (0)

Input: Hi, sorry to bother you, what did the test record for Cc1c(-c2cccnc2)c2ccccc2n1CCCCC(=O)O ?
Output: no (0)

Input: Hey, what did the test say about Nc1ccc(Nc2ccccc2)cc1 ?
Output: no (0)

Input: // outcome(item) with item = Fc1ccccc1[C@@H](F)COC1CCC(Nc2ncnc3[nH]ncc23)CC1 (some centres undefined)
Output: yes (1)

Input: Record lookup: outcome of this test for O=C(O)CCN(C1(C(=O)NO)CCCC1)S(=O)(=O)c1ccc(Oc2ccc(F)cc2)cc1 ?
Output: no (0)

Input: Field: outcome | Entry: C1=CCCC=CCCC=CCC1
Output: no (0)

Input: Recorded test outcome, item C1N2CN3CN1CN(C2)C3
Output: no (0)

Input: I would be grateful if you could indicate the recorded call for O=C(O)c1cccc(Oc2ccccc2)c1 .
Output: no (0)

Input: Given Nc1cccc(N)c1 , state the outcome it received in this test.
Output: no (0)

Input: Field: outcome | Entry: CCOCCOCCOCCO
Output: no (0)

Input: GET /call?item= CCCCC(CC)COC(=O)c1ccc(C(=O)OCC(CC)CCCC)cc1 (centres undefined) returns the recorded outcome of this test.
Output: no (0)

Input: Tell me the recorded outcome of this test for Cc1ccc(C)c(O)c1 .
Output: no (0)

Input: Answer briefly: the call reported for CCCCC(CC)COC(=O)CCCCCCCCC(=O)OCC(CC)CCCC (centres undefined) in this assay.
Output: no (0)

Input: Record lookup: outcome of this test for CCn1nc(Cc2ccccc2)cc1C1CCN(C[C@H]2C[C@H](N(C)[C@@H](C(=O)O)C(C)C)C[C@@H]2c2cccc(F)c2)CC1 ?
Output: yes (1)

Input: Write down the call the test reported for this compound. Item: CC(=O)OC[C@H]1O[C@@](COC(C)=O)(O[C@H]2O[C@H](COC(C)=O)[C@@H](OC(C)=O)[C@H](OC(C)=O)[C@H]2OC(C)=O)[C@@H](OC(C)=O)[C@@H]1OC(C)=O
Output: no (0)

Input: Just curious, what result did O=C(OC[C@H]1O[C@@H](OC(=O)c2cc(O)c(O)c(OC(=O)c3cc(O)c(O)c(O)c3)c2)[C@H](OC(=O)c2cc(O)c(O)c(OC(=O)c3cc(O)c(O)c(O)c3)c2)[C@@H](OC(=O)c2cc(O)c(O)c(OC(=O)c3cc(O)c(O)c(O)c3)c2)[C@@H]1OC(=O)c1cc(O)c(O)c(OC(=O)c2cc(O)c(O)c(O)c2)c1)c1cc(O)c(O)c(OC(=O)c2cc(O)c(O)c(O)c2)c1 get here?
Output: no (0)
